# Study Target: hERG (Homo sapiens (Human))
# Sequence (Q12809 whole entry): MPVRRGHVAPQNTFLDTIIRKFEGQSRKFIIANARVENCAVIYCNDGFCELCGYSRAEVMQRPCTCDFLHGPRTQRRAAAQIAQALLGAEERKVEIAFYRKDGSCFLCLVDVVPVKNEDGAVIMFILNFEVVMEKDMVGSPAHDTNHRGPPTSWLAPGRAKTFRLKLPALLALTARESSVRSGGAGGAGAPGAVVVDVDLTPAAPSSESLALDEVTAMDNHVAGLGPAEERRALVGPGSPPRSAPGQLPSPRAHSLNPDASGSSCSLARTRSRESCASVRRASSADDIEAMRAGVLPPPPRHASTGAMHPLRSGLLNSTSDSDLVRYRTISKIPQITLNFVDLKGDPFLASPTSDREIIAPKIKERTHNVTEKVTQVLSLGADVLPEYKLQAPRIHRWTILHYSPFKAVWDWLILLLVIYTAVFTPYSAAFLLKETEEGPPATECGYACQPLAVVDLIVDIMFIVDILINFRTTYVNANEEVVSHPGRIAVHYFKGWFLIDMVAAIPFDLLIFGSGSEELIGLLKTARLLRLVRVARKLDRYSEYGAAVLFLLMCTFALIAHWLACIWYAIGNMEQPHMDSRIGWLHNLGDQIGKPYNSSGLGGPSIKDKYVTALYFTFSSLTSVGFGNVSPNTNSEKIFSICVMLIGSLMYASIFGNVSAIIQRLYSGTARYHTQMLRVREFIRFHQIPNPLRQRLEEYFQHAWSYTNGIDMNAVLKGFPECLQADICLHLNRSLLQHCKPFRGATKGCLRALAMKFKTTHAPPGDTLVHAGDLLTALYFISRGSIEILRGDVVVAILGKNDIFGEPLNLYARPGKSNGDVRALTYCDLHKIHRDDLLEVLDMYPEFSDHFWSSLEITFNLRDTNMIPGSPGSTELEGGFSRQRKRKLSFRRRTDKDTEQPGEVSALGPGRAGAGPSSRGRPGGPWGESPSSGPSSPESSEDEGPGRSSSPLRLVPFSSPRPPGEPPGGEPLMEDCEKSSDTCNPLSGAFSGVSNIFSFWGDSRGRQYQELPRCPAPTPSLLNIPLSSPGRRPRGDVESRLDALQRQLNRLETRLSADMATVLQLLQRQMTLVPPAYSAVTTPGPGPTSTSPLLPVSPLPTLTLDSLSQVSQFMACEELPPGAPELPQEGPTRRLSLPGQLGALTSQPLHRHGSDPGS
# Experiment Notes: Human ERG (hERG) assay, hERG currents in hERG-expressing CHO cells
# Type: cell-based
# Test Conditions: hERG-expressing CHO cells
Property Measured: IC50 (µM)

                                   compound  property_measured  readout_value
0  CNC[C@H](c1ccc2ccccc2c1)[C@H](OCC(=O)N1CCOCC1)c1ccccc1               IC50             21
1  CNC[C@H](c1ccc(Cl)c(Cl)c1)[C@H](O)c1cccc(I)c1 (single isomer, unassigned)               IC50            3.8
2  CNC[C@H](c1ccc(Cl)c(Cl)c1)[C@@H](O)c1ccccc1-c1cccs1               IC50             21
3        CNC[C@H](Cc1ccccc1O)c1ccc2ccccc2c1               IC50            6.1
4  CNC[C@H](c1ccc2ccccc2c1)[C@H](OCC(=O)N1CC[C@@H](O)C1)c1ccccc1               IC50             33
5  CN(C)C[C@H](c1ccc2ccccc2c1)[C@H](N)c1ccccc1               IC50             19
6  c1ccc([C@@H]2OCCNC[C@H]2c2ccc3ccccc3c2)cc1               IC50             20
7  CNC[C@H](c1ccc2ccccc2c1)[C@H](OCC(=O)N1CCC1)c1ccccc1               IC50             29

---

# Study Target: CYP2D6 (Homo sapiens (Human), UniProt P10635)
# Sequence (P10635 whole entry): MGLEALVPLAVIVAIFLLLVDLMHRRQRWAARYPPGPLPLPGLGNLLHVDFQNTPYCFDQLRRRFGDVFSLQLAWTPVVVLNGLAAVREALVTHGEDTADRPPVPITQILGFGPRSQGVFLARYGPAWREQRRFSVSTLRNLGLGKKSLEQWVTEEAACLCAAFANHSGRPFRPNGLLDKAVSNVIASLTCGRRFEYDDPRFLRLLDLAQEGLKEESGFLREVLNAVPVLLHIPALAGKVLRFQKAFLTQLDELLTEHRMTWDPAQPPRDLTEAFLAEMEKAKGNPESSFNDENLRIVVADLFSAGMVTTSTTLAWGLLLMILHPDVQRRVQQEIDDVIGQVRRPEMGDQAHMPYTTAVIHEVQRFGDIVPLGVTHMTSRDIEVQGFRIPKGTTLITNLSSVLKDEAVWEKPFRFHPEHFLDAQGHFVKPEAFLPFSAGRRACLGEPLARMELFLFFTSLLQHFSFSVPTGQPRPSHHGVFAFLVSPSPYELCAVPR
# Experiment Notes: Cytochrome P450 inhibition assay, recombinant CYP2D6 (MAMC substrate)
# Type: in vitro ADME
# Test Conditions: recombinant enzyme
pIC50: −log10 of the molar value.
Label Not satisfied if pIC50 falls below 6; label Satisfied in every other case.

>>> df
                                   compound  discrete_label
0  CNC[C@@H](c1ccc(Cl)c(Cl)c1)[C@@H](O)c1ccccc1[S+](C)[O-] (stereo partly drawn) [Compound 128]   Not satisfied
1  CNC[C@H](c1ccc(Cl)c(Cl)c1)[C@H](O)c1cccc([N+](=O)[O-])c1 [Compound 102]       Satisfied
2  CNC[C@@H](c1ccc2ccccc2c1)[C@@H](O)c1ccc2c(c1)OCCO2 (racemic) [Compound 145]       Satisfied
3  NC[C@H](c1ccc2ccccc2c1)[C@@H](O)c1ccncc1Cl [Compound 95]       Satisfied
4  NCC(c1ccc2ccccc2c1)C(O)c1ccc(F)cc1F (stereo not drawn) [Compound 107]   Not satisfied
5  CCOC(=O)CO[C@H](c1ccccc1)[C@H](CNC)c1ccc2ccccc2c1 [Compound 35]       Satisfied

---

A collection of compounds and their measured pKi
# Study Target: human dopamine transporter (Homo sapiens (Human))
# Sequence (Q01959 whole entry): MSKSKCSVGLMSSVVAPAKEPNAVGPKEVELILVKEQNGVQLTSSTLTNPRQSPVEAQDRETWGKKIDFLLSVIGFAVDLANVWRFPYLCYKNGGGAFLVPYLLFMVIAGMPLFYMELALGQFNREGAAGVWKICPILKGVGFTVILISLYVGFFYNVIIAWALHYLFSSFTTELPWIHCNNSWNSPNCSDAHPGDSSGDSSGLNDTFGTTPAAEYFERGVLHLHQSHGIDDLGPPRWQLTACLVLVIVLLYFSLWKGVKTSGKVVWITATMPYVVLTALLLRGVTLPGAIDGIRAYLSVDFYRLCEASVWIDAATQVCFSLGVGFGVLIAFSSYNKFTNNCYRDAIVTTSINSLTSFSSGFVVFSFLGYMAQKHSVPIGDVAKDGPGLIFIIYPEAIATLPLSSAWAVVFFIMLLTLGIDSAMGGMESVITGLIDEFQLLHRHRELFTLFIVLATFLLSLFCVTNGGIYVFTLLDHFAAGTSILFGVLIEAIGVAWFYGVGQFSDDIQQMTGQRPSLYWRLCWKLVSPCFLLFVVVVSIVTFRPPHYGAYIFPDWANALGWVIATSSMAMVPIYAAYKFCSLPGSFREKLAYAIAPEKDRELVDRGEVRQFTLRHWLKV
# Experiment Notes: Human DAT (dopamine transporter) uptake assay
# Type: cell-based
# Test Conditions: read-out: hDAT Ki
# Procedure: This protocol was designed to measure inhibition of uptake by the human dopamine transporter. […] The Assay Buffer (AB) was 1×HBSS and 0.02 M HEPES. The HEK293F cells were transfected with the human dopamine transporter and frozen in 1 mL aliquots at about 1E+07 cells/mL. […] A 1 mL sample (1:2 dilution) was prepared, and the cells were counted. […] Due to the proprietary nature of the dye formulation, all dye concentrations were expressed as a percentage of the vendor-recommended dye reconstitution. […]
pKi: −log10 of the molar value.
Property Measured: pKi

>>> print(df.to_string())
                                   compound  property_measured  readout_value
0  CNCC(Cc1ccccc1OC)c1ccc2ccccc2c1 (stereo not drawn) [Compound 57]                pKi           7.69
1  CNC[C@H](c1ccc2ccccc2c1)[C@@H](F)c1ccccc1                pKi           7.95
2   CNC[C@H](c1ccc2ccccc2c1)[C@H](O)c1cccs1                pKi           7.82
3  CNC[C@H](c1ccc2ccccc2c1)[C@H](O)c1ccccc1C (racemic) [Compound 56]                pKi           7.39
4  CNC[C@H](c1ccc2ccccc2c1)[C@H](OCC(=O)NC)c1ccccc1                pKi           7.68
5  CNC[C@H](c1ccc2ccccc2c1)[C@H](OCC(=O)N1CC[C@@H](O)C1)c1ccccc1                pKi           7.55
6  CNC[C@@H](c1ccc(Cl)c(Cl)c1)[C@@H](O)c1cccc(Br)c1                pKi           6.96
7       CNC[C@H](Cc1cccnc1)c1ccc(Cl)c(Cl)c1                pKi           6.90
8  CCCNC(=O)CO[C@H](c1ccccc1)[C@H](CNC)c1ccc2ccccc2c1                pKi           7.43

---

# Study Target: CYP2D6 (Homo sapiens (Human))
# Experiment Notes: Cytochrome P450 inhibition assay, recombinant CYP2D6 (MAMC substrate)
# Format: in vitro ADME
# Test Conditions: recombinant enzyme
pIC50: −log10 of the molar value.
Label TRUE for high-side pIC50 (at or above 6) and FALSE for low-side pIC50 (below it).

>>> print(df.to_string())
                                    compound  discrete_label
 0  CNC[C@H](c1ccc(Cl)c(Cl)c1)[C@@H](O)c1cccnc1OC [Compound 104]            TRUE
 1  CNC[C@H](c1ccc(Cl)c(Cl)c1)[C@H](O)c1ccccc1OC [Compound 160]            TRUE
 2  CNC[C@@H](c1ccc2ccccc2c1)[C@@H](OCC(N)=O)c1ccccc1 [Compound 117]           FALSE
 3  CNC[C@@H](c1ccc(Cl)c(Cl)c1)[C@@H](O)c1cccc(NS(=O)(=O)C(F)(F)F)c1 [Compound 121]           FALSE
 4  CNCC(Cc1ccccc1C)c1ccc2ccccc2c1 (centres unmarked) [Compound 134]            TRUE
 5  CNC[C@H](c1ccc(Cl)c(Cl)c1)[C@@H](O)c1ccccc1 [Compound 70]            TRUE
 6  CNC[C@@H](c1ccc(Cl)c(Cl)c1)[C@@H](O)c1cccc(SC)c1 [Compound 154]            TRUE
 7  CCc1cccc([C@@H](O)[C@H](CNC)c2ccc(Cl)c(Cl)c2)c1 [Compound 159]            TRUE
 8  CNCC(Cc1ccccc1C)c1ccc2ccccc2c1 (centres unmarked) [Compound 39]            TRUE
 9  CNCC(Cc1ccccc1O)c1ccc2ccccc2c1 (centres unmarked) [Compound 69]            TRUE
10  CNC[C@H](c1ccc2ccccc2c1)[C@@H](O)c1ccccc1F [Compound 60]            TRUE
11  CNC[C@@H](c1ccc(Cl)c(Cl)c1)[C@@H](O)c1cccc(SC)c1 [Compound 120]           FALSE
12  CNC[C@H](c1ccc2ccccc2c1)[C@@H](F)c1ccccc1 [Compound 11]            TRUE
13  CNC[C@@H](c1ccc(Cl)c(Cl)c1)[C@@H](O)c1cccnc1OC [Compound 171]           FALSE
14  CNCC(Cc1ccc(C)s1)c1ccc2ccccc2c1 (centres unmarked) [Compound 139]            TRUE

---

# Study Target: CYP3A4 (Homo sapiens (Human))
# Sequence (P08684 whole entry): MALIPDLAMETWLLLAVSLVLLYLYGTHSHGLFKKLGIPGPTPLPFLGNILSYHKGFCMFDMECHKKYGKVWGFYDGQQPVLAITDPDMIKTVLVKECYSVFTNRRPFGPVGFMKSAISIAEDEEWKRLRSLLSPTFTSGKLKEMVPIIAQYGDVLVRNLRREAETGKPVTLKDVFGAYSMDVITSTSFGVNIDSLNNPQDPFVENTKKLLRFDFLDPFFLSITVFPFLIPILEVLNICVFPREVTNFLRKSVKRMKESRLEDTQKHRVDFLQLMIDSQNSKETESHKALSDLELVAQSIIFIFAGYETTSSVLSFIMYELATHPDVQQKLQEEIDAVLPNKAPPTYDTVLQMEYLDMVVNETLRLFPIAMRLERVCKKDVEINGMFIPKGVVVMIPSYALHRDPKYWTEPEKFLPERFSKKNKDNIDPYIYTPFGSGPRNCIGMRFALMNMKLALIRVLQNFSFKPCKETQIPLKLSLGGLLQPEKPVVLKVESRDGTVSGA
# Experiment Notes: Cytochrome P450 inhibition assay, recombinant CYP3A4 (BFC substrate)
# Format: in vitro ADME
# Test Conditions: recombinant enzyme
pIC50: −log10 of the molar value.
Property Measured: pIC50

                                    molecule                   study_target  comparison_sign  readout_value
 0  CNC[C@@H](c1ccc(Cl)c(Cl)c1)[C@@H](O)c1ccsc1 [Compound 106]  CYP3A4 (Homo sapiens (Human))                =           4.70
 1  CNC[C@H](c1ccc(Cl)c(Cl)c1)[C@@H](O)c1cccc(SC)c1 [Compound 163]  CYP3A4 (Homo sapiens (Human))                =           4.85
 2  CNC[C@H](c1ccc(Cl)c(Cl)c1)[C@@H](O)c1cccc(I)c1 [Compound 165]  CYP3A4 (Homo sapiens (Human))                =           5.54
 3  CCc1ccccc1[C@@H](O)[C@H](CNC)c1ccc(Cl)c(Cl)c1 [Compound 158]  CYP3A4 (Homo sapiens (Human))                =           5.42
 4  CNC[C@H](c1ccc(Cl)c(Cl)c1)[C@H](O)c1ccccc1OC [Compound 160]  CYP3A4 (Homo sapiens (Human))                =           5.46
 5  CNC[C@H](c1ccc2ccccc2c1)[C@H](O)c1ccccc1C (racemic) [Compound 56]  CYP3A4 (Homo sapiens (Human))                =           4.96
 6  CNC[C@@H](c1ccc2ccccc2c1)[C@H](O)c1ccccc1F [Compound 96]  CYP3A4 (Homo sapiens (Human))                =           4.70
 7  CNC[C@H](c1ccc(Cl)c(Cl)c1)[C@@H](O)c1ccccc1[N+](=O)[O-] [Compound 65]  CYP3A4 (Homo sapiens (Human))                =           5.11
 8  CNCC(Cc1ccccc1C)c1ccc2ccccc2c1 (stereo not drawn) [Compound 39]  CYP3A4 (Homo sapiens (Human))                =           5.08
 9  CNC[C@H](c1ccc(Cl)c(Cl)c1)[C@@H](O)c1cccc(NC(C)=O)c1 [Compound 94]  CYP3A4 (Homo sapiens (Human))                =           4.74
10  CNCC(CCc1ccccc1)[C@H](O)c1ccccc1 (stereo partly drawn) [Compound 66]  CYP3A4 (Homo sapiens (Human))                =           4.70
11  CNC[C@H](c1ccc(Cl)c(Cl)c1)[C@H](O)c1ccncc1 (racemic) [Compound 155]  CYP3A4 (Homo sapiens (Human))                ≤           4.70
12  CNC[C@H](c1ccc(Cl)c(Cl)c1)[C@@H](O)c1ccccc1 [Compound 70]  CYP3A4 (Homo sapiens (Human))                =           4.70
13  CNC[C@H](Cc1ccccc1O)c1ccc2ccccc2c1 [Compound 140]  CYP3A4 (Homo sapiens (Human))                =           4.70
14  CN(C)C[C@H](c1ccc2ccccc2c1)[C@H](N)c1ccccc1 [Compound 82]  CYP3A4 (Homo sapiens (Human))                =           4.70
15  CN(C)C[C@H](c1ccc2ccccc2c1)[C@H](OCCO)c1ccccc1 [Compound 89]  CYP3A4 (Homo sapiens (Human))                =           4.70
16  CNC[C@@H](c1ccc(Cl)c(Cl)c1)[C@@H](O)c1cccc([S+](C)[O-])c1 (single isomer, unassigned) [Compound 116]  CYP3A4 (Homo sapiens (Human))                =           4.70
17  CNC[C@@H](c1ccc(Cl)c(Cl)c1)[C@@H](O)c1cncc(OC)c1 [Compound 109]  CYP3A4 (Homo sapiens (Human))                =           4.70
